system: RXF-631 renal; assay: NCI tumour cell line growth inhibition, 48 h
The compounds listed here are annotated with their TGI.

Sample records with TGI:
compound	TGI
CCC[CH2][Sn]1([CH2]CCC)[O]C(=O)c2cccc(C)c2[O]1	0.535 µM
COC1OC(COC(C)=O)C(OC(C)=O)C(OC(C)=O)C1NC(=O)N(CCCl)N=O (stereo unspecified)	> 100 µM
COC1/C=C\C=C(/C)C(=O)NC2=CC(=O)C(N)=C(CC(C)CC(OC)C(O)C(C)C=C(C)C1OC(N)=O)C2=O (stereo unspecified)	> 100 µM
O=C(CC1(O)C(=O)Nc2c(Cl)ccc(Cl)c21)c1ccco1 (stereo unspecified)	65.3 µM

Let me know recorded TGI for "CNc1ccccc1-c1nc2ccccc2c(=O)o1" , thanks.
> 100 µM

Let me know recorded TGI for "COc1cccc2c1N[S@](=O)S2" , thanks.
> 100 µM
